These measurements were taken from ChEMBL document CHEMBL1144643.

molecular target: Cannabinoid receptor 1 (Homo sapiens, UniProt P21554)
Sequence (P21554 whole entry): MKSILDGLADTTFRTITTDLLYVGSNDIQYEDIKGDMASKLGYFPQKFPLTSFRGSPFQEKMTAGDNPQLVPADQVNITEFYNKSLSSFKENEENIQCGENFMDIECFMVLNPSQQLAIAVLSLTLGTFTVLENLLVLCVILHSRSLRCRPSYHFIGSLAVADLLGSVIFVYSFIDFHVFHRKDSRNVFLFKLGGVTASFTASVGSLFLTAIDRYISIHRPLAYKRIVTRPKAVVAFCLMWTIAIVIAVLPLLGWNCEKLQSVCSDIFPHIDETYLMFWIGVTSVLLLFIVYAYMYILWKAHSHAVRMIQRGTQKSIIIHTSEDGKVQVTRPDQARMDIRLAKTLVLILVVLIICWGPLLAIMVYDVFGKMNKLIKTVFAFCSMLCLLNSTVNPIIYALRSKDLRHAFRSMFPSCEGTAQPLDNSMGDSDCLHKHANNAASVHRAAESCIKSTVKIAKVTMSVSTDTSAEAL
Sorting guide: entries reporting Ki beneath 20 nM go in the y pile, the rest go in the n pile.

IN: Threshold test, Ki < 20 nM: `O=C(N[C@@H]1c2ccccc2C[C@@H]1O)c1cn(-c2ccc(Cl)cc2)c(-c2ccccc2Cl)n1`
OUT: y

IN: // same read-out, input: `Cc1ccccc1-c1nc(C(=O)NC2CCCCC2)cn1-c1ccc(Cl)cc1`
OUT: n

IN: // same read-out, input: `N[C@@H]1CCCC[C@H]1NC(=O)c1cn(-c2ccc(Cl)cc2)c(-c2ccc(Cl)cc2Cl)n1`
OUT: n

IN: // same read-out, input: `O=C(NC1CCCCC1)c1cn(-c2ccc(Cl)cc2)c(-c2ccccc2Cl)n1`
OUT: y

IN: // same read-out, input: `CCc1c(C(=O)N[C@H]2CCCC[C@@H]2O)nc(-c2ccccc2Cl)n1-c1ccc(Br)cc1`
OUT: y

IN: // same read-out, input: O=C(NC1CCCCC1O)c1cn(-c2ccc(Cl)cc2)c(-c2ccc(Cl)cc2Cl)n1 (racemic)
OUT: n

IN: // same read-out, input: `COc1ccc(-n2cc(C(=O)NC3CCCCC3)nc2-c2ccccc2Cl)cc1`
OUT: y

IN: // same read-out, input: `O=C(NC1CCCCC1)c1cn(-c2ccc(Cl)cc2)c(-c2ccc(Cl)cc2Cl)n1`
OUT: y

IN: // same read-out, input: `CCc1ccccc1-c1nc(C(=O)NC2CCCCC2)cn1-c1ccc(Cl)cc1`
OUT: n

IN: // same read-out, input: `CN[C@H]1CCCC[C@@H]1NC(=O)c1cn(-c2ccc(Cl)cc2)c(-c2ccc(Cl)cc2Cl)n1`
OUT: n

* * *

biological target: Cannabinoid receptor 1 (Homo sapiens)
Sorting guide: entries reporting Ki beneath 0.01 µM go in the MET pile, the rest go in the NOT MET pile.

IN: Threshold test, Ki < 0.01 µM: `COc1ccccc1-c1nc(C(=O)NC2CCCCC2)cn1-c1ccc(Cl)cc1`
OUT: NOT MET

IN: // same read-out, input: O=C(N[C@H]1c2ccccc2C[C@@H]1O)c1cn(-c2ccc(Cl)cc2)c(-c2ccccc2Cl)n1 (racemic)
OUT: NOT MET

IN: // same read-out, input: `O=C(NC1CCCCC1)c1cn(-c2ccc(Cl)cc2)c(-c2ccccc2)n1`
OUT: NOT MET

IN: // same read-out, input: `Cc1ccc(-n2cc(C(=O)NC3CCCCC3)nc2-c2ccccc2Cl)cc1`
OUT: MET

IN: // same read-out, input: `CC(C)c1c(C(=O)N[C@H]2CCCC[C@@H]2O)nc(-c2ccccc2Cl)n1-c1ccc(Cl)cc1`
OUT: NOT MET

IN: // same read-out, input: `O=C(N[C@H]1CCC[C@@H]1O)c1cn(-c2ccc(Cl)cc2)c(-c2ccccc2Cl)n1`
OUT: NOT MET

IN: // same read-out, input: `O=C(N[C@H]1CCCC[C@@H]1O)c1nc(-c2ccccc2Cl)n(-c2ccc(Cl)cc2)c1Br`
OUT: NOT MET

IN: // same read-out, input: CC1CCC(n2cc(C(=O)NC3CCCCC3)nc2-c2ccccc2Cl)CC1 (centres undefined)
OUT: NOT MET

IN: // same read-out, input: `O=C(N[C@@H]1CCC[C@H]1O)c1cn(-c2ccc(Cl)cc2)c(-c2ccccc2Cl)n1`
OUT: NOT MET

IN: // same read-out, input: `O=C(NC1CCCCC1)c1cn(-c2ccc(F)cc2)c(-c2ccc(Cl)cc2Cl)n1`
OUT: MET

IN: // same read-out, input: `O=C(NC1CCCCC1)c1cn(-c2cccnc2)c(-c2ccccc2Cl)n1`
OUT: NOT MET

IN: // same read-out, input: `O=C(NC1CCCCC1)c1cn(-c2ccc(Cl)cc2)c(-c2ccc(F)cc2F)n1`
OUT: NOT MET

IN: // same read-out, input: `Cc1ccc(-n2cc(C(=O)NC3CCCCC3)nc2-c2ccc(Cl)cc2Cl)cc1`
OUT: MET

IN: // same read-out, input: `O=C(N[C@H]1c2ccccc2C[C@H]1O)c1cn(-c2ccc(Cl)cc2)c(-c2ccccc2Cl)n1`
OUT: MET

IN: // same read-out, input: `O=C(N[C@H]1CCCC[C@@H]1O)c1cn(-c2ccc(Cl)cc2)c(-c2ccccc2Cl)n1`
OUT: NOT MET

IN: // same read-out, input: `COc1ccc(-n2cc(C(=O)NC3CCCCC3)nc2-c2ccc(Cl)cc2Cl)cc1`
OUT: MET

IN: // same read-out, input: `Cc1ccc(-c2nc(C(=O)NC3CCCCC3)cn2-c2ccc(Cl)cc2)c(C)c1`
OUT: MET

IN: // same read-out, input: O=C(N[C@H]1Cc2ccccc2[C@H]1O)c1cn(-c2ccc(Cl)cc2)c(-c2ccccc2Cl)n1 (racemic)
OUT: NOT MET
